Reference source for all entries: patent US12473304B2

- SUBJECT OF TEST: human PAD4 (hPAD4) (Homo sapiens (Human), UniProt Q9UM07)
- Sequence (Q9UM07 whole entry): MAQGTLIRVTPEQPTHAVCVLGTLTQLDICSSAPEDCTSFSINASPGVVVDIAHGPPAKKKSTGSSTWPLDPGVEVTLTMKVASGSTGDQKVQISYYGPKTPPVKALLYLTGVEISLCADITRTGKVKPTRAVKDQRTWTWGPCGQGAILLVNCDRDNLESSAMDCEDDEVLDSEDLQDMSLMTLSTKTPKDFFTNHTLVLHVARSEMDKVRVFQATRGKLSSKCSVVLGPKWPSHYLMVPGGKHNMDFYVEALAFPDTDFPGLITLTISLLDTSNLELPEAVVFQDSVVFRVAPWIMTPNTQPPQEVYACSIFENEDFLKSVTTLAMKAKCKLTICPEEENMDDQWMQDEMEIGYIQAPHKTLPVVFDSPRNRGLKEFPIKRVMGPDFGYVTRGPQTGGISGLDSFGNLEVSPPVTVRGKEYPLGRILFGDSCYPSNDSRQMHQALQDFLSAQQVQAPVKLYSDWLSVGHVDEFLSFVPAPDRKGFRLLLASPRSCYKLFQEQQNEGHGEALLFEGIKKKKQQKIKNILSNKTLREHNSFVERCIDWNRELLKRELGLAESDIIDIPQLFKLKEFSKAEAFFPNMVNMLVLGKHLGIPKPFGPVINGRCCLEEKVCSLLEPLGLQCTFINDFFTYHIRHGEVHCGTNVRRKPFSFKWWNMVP
- EXPERIMENT SUMMARY: RFMS Human PAD4 Functional Assay 1
- MEASUREMENT PARAMETERS: RFMS assay 1; 5 nM hPAD4, 250 μM BAEE substrate, 50 μM calcium, 37° C.

| MOLECULE | IC50 [µM] |
| --- | --- |
| COC1CN(c2ccc3cc(-c4nn5cc(C(=O)N6CC7CCC6[C@@H]7N)cc(F)c5c4C)n(CC4CC4)c3n2)C1 (stereo partly drawn) | 0.074 |
| COc1cc(C(=O)N2C[C@H](N)C[C@@H](F)C2)cn2nc(-c3cc4cccc(C5CCN(C(=O)[C@@H](C)OC)CC5)c4n3CC3CC3)c(C)c12 | 0.14 |
| Cc1c(-c2cc3ccc(N4CCC[C@@H](O)C4)nc3n2CC2CC2)nn2cc(C(=O)N3CC4CCC3[C@@H]4N)cc(F)c12 (stereo partly drawn) [Example 51] | 0.109 |
